In this section we review reported melting point values for a set of compounds.
Structures can show the parent of a compound that is named as a salt.
recorded.endpoint: melting point

| compound | result |
| --- | --- |
| CCN(CC)CCCCOc1ccc(-c2nnc(CSCCOc3ccccc3)o2)cc1 | 35 to 38 °C |
| COc1cc(-c2nnc(CSCCOc3ccccc3)o2)ccc1OCCCN(C)C.O=C(O)/C=C\C(=O)O | 114 to 116 °C |
| CN(C)CCNC(=O)Nc1ccc(-c2cnc(COCc3cc4ccccc4o3)o2)cc1 | 150 to 154 °C |
| CN(C)CCNc1ccc(-c2nnc(CSCCOc3ccccc3)o2)cn1 | 97 to 98 °C |
| CN(C)CCCOc1ccc(-c2nnc(CSCCOc3ccccc3OC(F)(F)F)o2)cc1 | 55 to 55.5 °C |
| COCCSCc1nnc(-c2ccc(OCCCN(C)C)cc2)o1 (as salt: maleate) | 97.5 to 99 °C |
| CN(C)CCNC(=O)c1cccc(-c2nnc(CSCCOc3ccccc3)o2)c1 | 64 °C |
| c1ccc(OCCSCc2nnc(-c3ccc(OCCCCN4CCSCC4)cc3)o2)cc1 | 58 °C |

---

In this section we review reported melting point values for a set of compounds.

| compound | melting point |
| --- | --- |
| CN(C)CCCNC(=S)Nc1ccc(-c2nnc(CSCCOc3ccccc3)o2)cc1 [Example 118] | 136 to 139 °C |
| c1ccc(OCCSCc2nnc(-c3ccc(OCCCN4CCSCC4)cc3)o2)cc1 [Example 82] | 85 °C |
| CN(C)CCCNC(=O)c1ccc(-c2nnc(CSCCOc3ccc(Cl)cc3Cl)o2)cc1 [Example 44] | 140 to 141 °C |
| CN(C)CCCCCNC(=O)c1ccc(-c2nnc(CSCCOc3ccccc3)o2)cc1 [Example 56] | 83 to 89 °C |
| O=C1CCN(CCCOc2ccc(-c3nnc(CSCCOc4ccccc4)o3)cc2)CC1 [Example 260] | 55 to 57 °C |
| NCCCOc1ccc(-c2nnc(CSCCOc3ccccc3)o2)cc1 [Example 84] | 30 to 35 °C |
| CN(C)CCNC(=O)Nc1ccc(-c2cnc(CSCCOc3ccccc3)o2)cc1.O=C(O)/C=C\C(=O)O [Example 250] | 105 to 107 °C |
| CN(C)CCCCCOc1ccc(-c2nnc(CSCCOc3ccccc3)o2)cc1 [Example 69] | 51 to 54 °C |

---

In this section we review reported melting point values for a set of compounds.
recorded.endpoint: melting point

| input.smiles | result |
| --- | --- |
| CN1CCC(Oc2ccc(-c3nnc(CSCCOc4ccccc4)o3)cc2)CC1.O=C(O)/C=C\C(=O)O | 149 to 150 °C |
| O=C(NCCN1CCCCC1)Nc1ccc(-c2nnc(CSCCOc3ccccc3)o2)cc1 | 126 to 128 °C |
| CN(C)CCCCNC(=O)c1ccc(-c2nnc(CSCCOc3ccccc3)o2)cc1 | 71 to 78 °C |
| c1ccc(OCCSCc2ncc(-c3ccc(OCCCN4CCCCCC4)cc3)o2)cc1 | 32 to 35 °C |
| CN(C)CCCOc1ccc(-c2nnc(CSCCOc3ccccc3)n2-c2ccccc2)cc1.O=C(O)C(=O)O | 120 to 123 °C |
| O=C(NCCN1CCCCC1)Nc1ccc(-c2cnc(COCc3cc4ccccc4o3)o2)cc1 | 102 to 104 °C |
| CN(C)CCCNC(=O)c1ccc(-c2nnc(CSCCCCOc3ccccc3)o2)cc1 | 87 to 93 °C |
| CC(C)N(CCOc1ccc(-c2nnc(CSCCOc3ccccc3)o2)cc1)C(C)C | 42 to 45 °C |
